# assay-system: RNase A (Bos taurus, UniProt P61823)
property: Kd (µM)

1 = O=c1ccn([C@@H]2O[C@H](CO)[C@@H](OP(=O)(O)O)[C@H]2O)c(=O)[nH]1
2 = Nc1ncnc2c1ncn2[C@@H]1O[C@H](COP(=O)(O)O)[C@@H](O)[C@H]1O
# returns the entry with the larger Kd; inputs 1 and 2 Your choice should be expressed through its label.
2

* * *

# assay-system: RNase A (Bos taurus, UniProt P61823, A135G)
# assay-name: crystal structure
# Format: binding
property: pKd
Recall that pKd is obtained by taking minus log10 of the concentration measured in molar.

So what does the record say about pKd for Nc1ncnc2c1ncn2[C@@H]1O[C@H](COP(=O)(O)O)[C@@H](O)[C@H]1O [5′-AMP] ?
3.36

* * *

# assay-system: RNase A (Bos taurus, UniProt P61823, A135G)
# Sequence (P61823 27-150 A135G): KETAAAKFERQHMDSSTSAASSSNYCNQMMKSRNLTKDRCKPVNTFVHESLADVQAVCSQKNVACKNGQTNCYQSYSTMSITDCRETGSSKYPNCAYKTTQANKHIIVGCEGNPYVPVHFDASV
# assay-name: crystal structure
# Assay type: binding
property: pKd
Scale for pKd: -log10 of concentration given in mol/L; no unit attached.

Fill in the blank: the reported pKd of O=c1ccn([C@@H]2O[C@H](CO)[C@@H](OP(=O)(O)O)[C@H]2O)c(=O)[nH]1 is ____.
4.30
